# Test system: SF-268 CNS
# assay-notes: NCI tumour cell line growth inhibition, 48 h
Catalogue of compounds with associated TGI

Illustrative cases are given below, each with its answer.
compound | endpoint | observed-measurement
C[C@@H]1CCC2[C@@H](C)[C@@H](OCCO[C@H]3OC4O[C@@]5(C)CCC6[C@H](C)CCC([C@H]3C)[C@@]46OO5)OC3O[C@@]4(C)CCC1[C@]32OO4 (some centres undefined) | TGI | > 100 µM
O=c1cc2oc3cc(O)c(O)cc3c(-c3ccccc3O)c-2cc1O | TGI | > 100 µM
CCCNC(=S)/N=C/c1c(O)c2ccccc2[nH]c1=O | TGI | > 100 µM

Reported TGI of N#CC1(C#N)C2CCCCC23OC(=N)C1(C#N)C(c1ccccc1)O3 (centres undefined) : 18.1 µM

Reported TGI of COC(=O)C1C=CN(N(C)C)C2=C1C(=O)c1c(O)cccc1C2=O (centres undefined) : 17.3 µM

Reported TGI of O=C(CC(O)(C(F)(F)F)C(F)(F)F)c1cc(CC(=O)C(O)(C(F)(F)F)C(F)(F)F)cc(CC(=O)C(O)(C(F)(F)F)C(F)(F)F)c1 : > 10 µM

Reported TGI of COc1ccc2oc(-c3cccnc3)cc(=O)c2c1 : > 100 µM

Reported TGI of Nc1c(C(=O)Nc2cccc(Br)c2)sc2nc3c(cc12)C(=O)CCC3 : > 100 µM

Reported TGI of CC(=O)O[C@H]1CCC2[C@@H]3CCC4=C(O)c5nocc5C[C@]4(C)C3CC[C@@]21C (some centres undefined) : > 100 µM

###

# Test system: SK-MEL-2 melanoma
# assay-notes: NCI tumour cell line growth inhibition, 48 h
endpoint: TGI (µM)
All answers are understood in µM, so give the number only.

molecule | unit-annotation | observed-measurement
CC1(C)OC(=C(C#N)C#N)C(C#N)=C1/C=C/c1ccncc1 | µM | 6.44

Form field, TGI with SK-MEL-2 melanoma, item Cc1nc2cnc(N)c(C#Cc3cncc(C(=O)Nc4ccc(CN5CCN(C)CC5)c(C(F)(F)F)c4)c3)c2nc1C : 0.817

Form field, TGI with SK-MEL-2 melanoma, item CC(/C=N\NC(=S)N1CCCCC1)=N/NC(=S)N1CCCCC1 : 6.36

Form field, TGI with SK-MEL-2 melanoma, item CC(=O)OC1(C#N)CC2OC1C1C2N=NN1C(=O)OC(C)(C)C (stereo not given) : 68.9

###

Catalogue of compounds with associated TGI
# Test system: T-47D breast
# assay-notes: NCI tumour cell line growth inhibition, 48 h

Illustrative cases are given below, each with its answer.
compound | system-tested | endpoint | observed-measurement
Nc1nc2c(ncn2Cc2ccc(CO)cc2)c(=O)[nH]1 | T-47D breast | TGI | > 100 µM
COc1ccc(N2C(=O)CS(=O)(=O)C2c2cccc(Oc3ccccc3)c2)cc1 (stereo not given) | T-47D breast | TGI | > 100 µM

Reported TGI of O=C(NC(CO)Cc1ccc(Oc2cc(CC(CO)NC(=O)OCc3ccccc3)ccc2OC(=O)OCc2ccccc2)cc1)OCc1ccccc1 (stereo not given) : 23.1 µM

Reported TGI of CC(=O)OC1O[C@@H](C(C)(C)O)CC[C@@H]1[C@H]1CC[C@@]2(C)C3=C(CC[C@]12C)[C@@]1(C)C[C@@H](OC(=O)CC(C)(O)CC(=O)O)[C@H](OC(C)=O)C(C)(C)C1CC3 (stereo not given in full) : 40.3 µM

Reported TGI of Cc1[nH]c2ccccc2c1-c1cc(-c2cc(-c3c(C)[nH]c4ccccc34)on2)no1 : > 100 µM
